Data origin, for the record: patent US11560529B2

- experimental-protocol: Qualitative solubility of sodium galactarate in water-based solutions
- test-conditions: 20 °C, pH 10, aqueous buffer, thermodynamic from solid, Solubility after 15 min., 0.5M NH4OH (pH 10); 0.5 g in 50 mL, 20 C, stirring

molecule	solubility at 15 min
O=C([O-])[C@@H](O)[C@H](O)[C@H](O)[C@@H](O)C(=O)[O-].[Na+].[Na+] [sodium galactarate]	< 10000 µg/mL

* * *

- experimental-protocol: Qualitative solubility of sodium galactarate in water-based solutions
- test-conditions: 20 °C, water, thermodynamic from solid, Solubility after 50 min., Water; 0.5 g in 50 mL, 20 C, stirring
measured-property: solubility at 50 min

molecule	measured-property	result
O=C([O-])[C@@H](O)[C@H](O)[C@H](O)[C@@H](O)C(=O)[O-].[Na+].[Na+] [sodium galactarate]	solubility at 50 min	> 10000 µg/mL
